Numbers sourced from patent US20260049134A1.

target: T1, ICAM1-Fc (R&D Systems) (human, UniProt P05362 28-480); assay: ELISA on coated ICAM1-Fc, 150 ng IgG1; None 0.060
T1 construct: Bought; also called ICAM-1/CD54; not shown: Fc of the bought fusion protein
T1 sequence (P05362 28-480): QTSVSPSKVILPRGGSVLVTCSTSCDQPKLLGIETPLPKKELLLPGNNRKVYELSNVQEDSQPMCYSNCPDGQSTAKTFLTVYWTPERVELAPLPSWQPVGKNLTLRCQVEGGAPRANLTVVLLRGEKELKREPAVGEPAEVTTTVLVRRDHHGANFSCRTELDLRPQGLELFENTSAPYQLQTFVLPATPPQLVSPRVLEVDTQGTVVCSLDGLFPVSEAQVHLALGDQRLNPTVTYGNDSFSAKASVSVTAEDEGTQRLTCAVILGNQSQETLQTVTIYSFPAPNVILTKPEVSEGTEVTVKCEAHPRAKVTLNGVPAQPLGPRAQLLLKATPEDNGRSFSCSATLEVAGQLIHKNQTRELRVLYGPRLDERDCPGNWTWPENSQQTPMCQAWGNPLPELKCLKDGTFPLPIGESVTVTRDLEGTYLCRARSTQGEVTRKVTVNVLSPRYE

{"Binder": "HW-70 chimeric rabbit-human IgG1 LA/LA/PG (antibody, V domains shown, Fc-silenced (L234A/L235A/P329G) IgG1, lambda; Alexa Fluor 647-labeled in single-step flow cytometry; Cluster C-1) VH: QSLEESGGRLVTPGTPLTLTCTVSGFSLSSNAMSWVRQAPGKGLEWIGTIDGYGYTYYASWAKGRFTVSKTSTTVDLKITSPTTEDTATYFCAREIYLGSNFWGPGTLVTISS VL: SFVLTQPASVQVNLGQTVSLTCTADTLSRRYASWYQQKPGQAPVLLIYRDTSRPSGVPDRFSGSSSGNTATLTISGAQAGDEADYYCATADGSGSSYQFVFGGGTQLTVTG", "ELISA Absorbance (405 nm-570 nm)": 0.064}
{"Binder": "TH9-0022 (antibody, human IgG1, kappa, L234A L235A, V domains shown, also called TH9-022; negative control) VH: QSLEESGGRLVTPGTPLTLTCTVSGFSLSSYAMNWVRQAPGKGLEWIGIINSYGSTYYASWAKGRFTISKTSTTVDLKITSPTTEDTATYFCARVTYDSYGYGYAPYGMDLWGPGTLVTVSS VL: LVMTQTPSSTSNAVGGTVTIKCQASQSIGNVLAWYQQKPGQPPKLLIYAASTLASGVPSRVGGSRSGTEYTLTISGVQREDAATYYCLGSDSDSDIAFGGGTELEILR", "ELISA Absorbance (405 nm-570 nm)": 0.077}
{"Binder": "HW-17 chimeric rabbit-human IgG1 LA/LA/PG (antibody, V domains shown, Fc-silenced (L234A/L235A/P329G) IgG1, lambda; Alexa Fluor 647-labeled in single-step flow cytometry; Cluster C-1) VH: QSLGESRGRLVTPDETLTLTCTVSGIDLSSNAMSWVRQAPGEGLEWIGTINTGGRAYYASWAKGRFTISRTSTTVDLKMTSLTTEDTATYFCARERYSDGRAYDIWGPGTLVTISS VL: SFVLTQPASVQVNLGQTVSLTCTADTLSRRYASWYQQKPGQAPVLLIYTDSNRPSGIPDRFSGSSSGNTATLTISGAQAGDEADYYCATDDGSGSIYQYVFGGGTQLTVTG", "ELISA Absorbance (405 nm-570 nm)": 0.071}
{"Binder": "HW-56 chimeric rabbit-human IgG1 LA/LA/PG (antibody, V domains shown, Fc-silenced (L234A/L235A/P329G) IgG1, kappa; Alexa Fluor 647-labeled in single-step flow cytometry; Cluster C-45) VH: QSVKESEGGLFKPTDTLTLTCTASGFTVSTNAVTWVRQAPGNGLEYIGTIGRSGSAYFASWAKRRSTLTRDINLNTVTLKMTSLTAADTATYFCVRGSPGYRTAISIWGPGTLVTISS VL: AVMTQTPSSTSAAVEGTVTINCQASQSISNRLSWFQQKPGQPPKLLIYQASTLASGVPSRFKGSGSGTEFTLTISGVQREDAATYYCLGSYSSSDASFGGGTKLEIKR", "ELISA Absorbance (405 nm-570 nm)": 0.074}
